FYI, the data here is from paper PMC5760963.

Assay type: in vivo
TEST_PARAMETERS: human, plasma, po, 75 mg, AUC 0–inf, reference formulation (TAMIFLU), 75 mg oral, fed, healthy Indian subjects, mean ±SD
Can you tell me AUC(0-inf) for the items I'm about to list?
Numbers only, in ng·h/mL.

COMPOUND: CCC(CC)O[C@@H]1C=C(C(=O)O)C[C@H](N)[C@H]1NC(C)=O [Oseltamivir carboxylate, oseltamivir carboxylate]
RESULT: 3990

# ---- query compound ----
Problem: Would you kindly share the measured AUC(0-inf) for CCOC(=O)C1=C[C@@H](OC(CC)CC)[C@H](NC(C)=O)[C@@H](N)C1 ?
Result: 163

----------
Type: in vivo
TEST_PARAMETERS: human, plasma, po, 75 mg, t1/2, reference formulation (TAMIFLU), 75 mg oral, fed, healthy Indian subjects, mean ±SD
RESULT_TYPE: half-life (h)
Give bare numbers, in h.

MOLECULE: CCC(CC)O[C@@H]1C=C(C(=O)O)C[C@H](N)[C@H]1NC(C)=O [Oseltamivir carboxylate, oseltamivir carboxylate]
UNIT_LABEL: h
half-life: 7.5

# ---- query molecule ----
Problem: Would you kindly share the measured half-life for CCOC(=O)C1=C[C@@H](OC(CC)CC)[C@H](NC(C)=O)[C@@H](N)C1 ?
Result: 4.97
